- experimental.target: hERG receptor (Homo sapiens (Human), UniProt Q12809)
- Sequence (Q12809 whole entry): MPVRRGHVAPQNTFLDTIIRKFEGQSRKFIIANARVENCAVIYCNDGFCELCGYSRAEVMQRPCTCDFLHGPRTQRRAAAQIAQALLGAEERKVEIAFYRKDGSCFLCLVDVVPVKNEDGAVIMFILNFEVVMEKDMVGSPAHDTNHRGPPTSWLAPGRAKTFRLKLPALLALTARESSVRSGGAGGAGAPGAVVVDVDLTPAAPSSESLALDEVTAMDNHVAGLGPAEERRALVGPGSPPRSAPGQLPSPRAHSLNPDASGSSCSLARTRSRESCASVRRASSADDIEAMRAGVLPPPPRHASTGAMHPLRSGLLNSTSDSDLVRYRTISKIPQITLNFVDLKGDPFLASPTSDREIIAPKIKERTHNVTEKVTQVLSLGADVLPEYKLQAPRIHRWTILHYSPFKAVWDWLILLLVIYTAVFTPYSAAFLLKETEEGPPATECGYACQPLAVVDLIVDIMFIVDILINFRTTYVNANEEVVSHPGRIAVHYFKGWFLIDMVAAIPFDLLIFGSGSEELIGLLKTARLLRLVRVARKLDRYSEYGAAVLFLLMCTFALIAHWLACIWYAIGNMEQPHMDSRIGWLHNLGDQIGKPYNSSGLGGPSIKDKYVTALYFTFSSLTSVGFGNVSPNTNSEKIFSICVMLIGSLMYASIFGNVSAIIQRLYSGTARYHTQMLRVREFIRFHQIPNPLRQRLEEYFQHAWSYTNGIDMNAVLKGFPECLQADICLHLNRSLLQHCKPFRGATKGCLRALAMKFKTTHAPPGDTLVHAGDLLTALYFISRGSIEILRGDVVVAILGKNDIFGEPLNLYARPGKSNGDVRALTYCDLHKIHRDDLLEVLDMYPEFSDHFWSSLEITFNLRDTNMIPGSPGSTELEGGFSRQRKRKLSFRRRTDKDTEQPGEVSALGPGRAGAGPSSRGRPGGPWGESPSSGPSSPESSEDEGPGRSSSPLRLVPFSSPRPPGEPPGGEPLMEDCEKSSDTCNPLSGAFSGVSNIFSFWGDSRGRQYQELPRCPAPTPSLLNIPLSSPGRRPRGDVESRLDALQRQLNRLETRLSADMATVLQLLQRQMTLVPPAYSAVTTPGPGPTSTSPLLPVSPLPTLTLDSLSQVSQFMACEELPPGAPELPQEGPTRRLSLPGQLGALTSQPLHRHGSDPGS
- experimental.protocol: HERGBD: inhibition of specific [3H]-Dofetilide binding to the hERG receptor
- conditions.used: [3H]-Dofetilide binding, membranes of HEK cells with human ERG receptor; read-out: IC50
Where a name gives a salt, the structure may show the parent alone.
experimental.readout: IC50

Field IC50 (system: hERG receptor (Homo sapiens (Human), UniProt Q12809)) for entry CCc1cc(Cn2cc(-c3ccc(Cl)c(OC(F)F)c3)cn2)n[nH]1 = 16.1 µM

Field IC50 (system: hERG receptor (Homo sapiens (Human), UniProt Q12809)) for entry Cc1cc(Cn2cc(-c3ccc(Cl)c(F)c3)cn2)n(C)n1 = 31.6 µM

Field IC50 (system: hERG receptor (Homo sapiens (Human), UniProt Q12809)) for entry Cn1ccc(Cn2cc(-c3ccccn3)cn2)n1 [Example 104, Succinate] = > 100 µM

Field IC50 (system: hERG receptor (Homo sapiens (Human), UniProt Q12809)) for entry CC(F)(F)c1cccc(-c2cnn(Cc3cc[nH]n3)c2)c1 [Example 93, Maleate] = 129 µM

Field IC50 (system: hERG receptor (Homo sapiens (Human), UniProt Q12809)) for entry FC(F)Oc1cccc(-c2cnn(Cc3cc[nH]n3)c2)c1 [Example 94, Maleate] = 120 µM

* * *

Please go through the items and note down their inhibition at 10 µM.
- experimental.target: rat NR1/NR2B receptor (Rattus norvegicus (Rat), UniProt P35439+Q00960)
- Sequence (Q00960 27-1482, other chains not shown): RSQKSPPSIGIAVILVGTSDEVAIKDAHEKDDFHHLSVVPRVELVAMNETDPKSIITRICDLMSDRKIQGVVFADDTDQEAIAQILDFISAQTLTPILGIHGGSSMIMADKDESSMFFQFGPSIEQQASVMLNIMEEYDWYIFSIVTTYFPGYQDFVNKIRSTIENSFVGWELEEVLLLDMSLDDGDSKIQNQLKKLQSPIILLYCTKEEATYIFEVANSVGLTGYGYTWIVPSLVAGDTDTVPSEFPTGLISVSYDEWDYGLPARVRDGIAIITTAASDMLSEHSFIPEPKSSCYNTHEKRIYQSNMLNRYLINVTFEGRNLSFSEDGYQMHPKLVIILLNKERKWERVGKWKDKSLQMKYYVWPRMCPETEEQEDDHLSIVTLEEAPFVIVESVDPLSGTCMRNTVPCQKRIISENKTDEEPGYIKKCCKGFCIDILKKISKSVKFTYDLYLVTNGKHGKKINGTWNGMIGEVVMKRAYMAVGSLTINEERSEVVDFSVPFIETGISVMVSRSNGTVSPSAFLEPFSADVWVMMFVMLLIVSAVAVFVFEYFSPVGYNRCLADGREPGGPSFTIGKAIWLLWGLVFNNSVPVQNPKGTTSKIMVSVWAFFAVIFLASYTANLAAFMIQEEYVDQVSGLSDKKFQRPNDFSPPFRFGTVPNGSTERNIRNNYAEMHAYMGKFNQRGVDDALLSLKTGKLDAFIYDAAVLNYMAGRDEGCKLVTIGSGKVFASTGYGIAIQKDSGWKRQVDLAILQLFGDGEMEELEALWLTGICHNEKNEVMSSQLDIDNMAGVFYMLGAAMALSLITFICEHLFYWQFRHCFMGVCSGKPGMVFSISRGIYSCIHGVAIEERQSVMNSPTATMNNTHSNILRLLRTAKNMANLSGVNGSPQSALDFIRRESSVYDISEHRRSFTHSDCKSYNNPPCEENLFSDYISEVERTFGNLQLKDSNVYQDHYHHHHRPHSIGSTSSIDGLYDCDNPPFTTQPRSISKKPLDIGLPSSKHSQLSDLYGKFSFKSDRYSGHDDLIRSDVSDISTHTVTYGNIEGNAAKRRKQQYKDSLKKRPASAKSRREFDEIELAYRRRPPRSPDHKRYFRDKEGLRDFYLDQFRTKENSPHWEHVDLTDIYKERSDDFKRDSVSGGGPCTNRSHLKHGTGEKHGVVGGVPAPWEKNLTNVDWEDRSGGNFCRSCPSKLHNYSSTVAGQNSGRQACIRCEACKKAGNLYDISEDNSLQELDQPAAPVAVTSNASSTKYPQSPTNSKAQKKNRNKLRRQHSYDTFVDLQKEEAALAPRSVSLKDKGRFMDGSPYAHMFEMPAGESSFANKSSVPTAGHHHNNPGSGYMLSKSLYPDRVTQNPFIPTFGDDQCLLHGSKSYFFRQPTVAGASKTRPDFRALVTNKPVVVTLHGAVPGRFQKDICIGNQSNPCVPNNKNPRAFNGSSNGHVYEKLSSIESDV
- experimental.protocol: NR2B binding assay: inhibition of specific [3H]-Ifenprodil binding to the rat NR1/NR2B receptor
- conditions.used: 10 μM test compound, [3H]-Ifenprodil binding, rat brain membranes; read-out: % INH @ 10 μM
The reply should be a number in %, with the unit left off.

Field inhibition at 10 µM (system: rat NR1/NR2B receptor (Rattus norvegicus (Rat), UniProt P35439+Q00960)) for entry COc1cc(F)ccc1-c1cnn(Cc2ccn(C)n2)c1 [Example 67, Succinate] = 16

Field inhibition at 10 µM (system: rat NR1/NR2B receptor (Rattus norvegicus (Rat), UniProt P35439+Q00960)) for entry COc1cc(F)ccc1-c1cnn(Cc2cc(C)nn2C)c1 [Example 68, Succinate] = 26.3

Field inhibition at 10 µM (system: rat NR1/NR2B receptor (Rattus norvegicus (Rat), UniProt P35439+Q00960)) for entry Cn1ccc(Cn2cc(-c3cc(F)cc(F)c3)cn2)n1 [Example 84] = 45.7

Field inhibition at 10 µM (system: rat NR1/NR2B receptor (Rattus norvegicus (Rat), UniProt P35439+Q00960)) for entry Cn1ccc(Cn2cc(-c3ccccc3)cn2)n1 [Example 85] = 25.3

Field inhibition at 10 µM (system: rat NR1/NR2B receptor (Rattus norvegicus (Rat), UniProt P35439+Q00960)) for entry Cc1cc(Cn2cc(-c3ccccc3)cn2)n(C)n1 [Example 86] = 10.9

Field inhibition at 10 µM (system: rat NR1/NR2B receptor (Rattus norvegicus (Rat), UniProt P35439+Q00960)) for entry Cc1cc(Cn2cc(-c3ccccn3)cn2)n(C)n1 [Example 105, Succinate] = 4.4

Field inhibition at 10 µM (system: rat NR1/NR2B receptor (Rattus norvegicus (Rat), UniProt P35439+Q00960)) for entry Cn1nccc1Cn1cc(-c2ccccc2)cn1 [Example 87] = 28.8

* * *

- experimental.target: hERG receptor (Homo sapiens (Human), UniProt Q12809)
- experimental.protocol: HERGBD: inhibition of specific [3H]-Dofetilide binding to the hERG receptor
Please go through the items and note down their IC50.
The reply should be a number in µM, with the unit left off.

IC50 measured on CCCc1cc(Cn2cc(-c3ccc(F)c(C(F)F)c3)cn2)n[nH]1 [Example 41] = 16

IC50 measured on Cn1cc(Cn2cc(-c3ccc(F)c(C(C)(F)F)c3)cn2)cn1 [Example 45, Succinate] = 67.8

IC50 measured on Cc1n[nH]c(C)c1Cn1cc(-c2ccc(Cl)c(OC(F)F)c2)cn1 [Example 88] = 43.2

IC50 measured on Cc1cc(Cn2cc(-c3ccc(Cl)c(C(F)(F)F)c3)cn2)n(C)n1 [Example 29, Succinate] = 17.9

IC50 measured on CCn1cncc1Cn1cc(-c2ccc(Cl)cc2)cn1 [Example 98] = 3.55

IC50 measured on Cc1n[nH]c(C)c1CCn1cc(-c2ccc(Cl)cc2)cn1 [Example 73] = 98

IC50 measured on Cn1ccc(Cn2cc(-c3cccc(OC(F)(F)F)c3)cn2)n1 [Example 23, Succinate] = 9.24

IC50 measured on Cc1cc(-c2cnn(Cc3cc[nH]n3)c2)ccc1F [Example 56] = 93.8

IC50 measured on CCn1cc(CCn2cc(-c3ccc(Cl)c(OC(F)F)c3)cn2)cn1 [Example 10] = 18.4

IC50 measured on CCc1[nH]ncc1Cn1cc(-c2ccc(F)c(C(F)F)c2)cn1 [Example 43] = 57.4

IC50 measured on Cc1n[nH]c(C)c1Cn1cc(-c2ccc(F)c(C(F)F)c2)cn1 [Example 89] = 88.2

IC50 measured on FC(F)Oc1cc(-c2cnn(Cc3cn[nH]c3)c2)ccc1Cl [Example 7] = 52.6

IC50 measured on Cc1cc(Cn2cc(-c3ccc(F)c(Cl)c3)cn2)n(C)n1 [Example 62] = 41.9

IC50 measured on FS(F)(F)(F)(F)c1cccc(-c2cnn(Cc3cc[nH]n3)c2)c1 [Example 72] = 44.7

IC50 measured on Cc1[nH]ncc1Cn1cc(-c2ccc(F)c(C(F)F)c2)cn1 [Example 42] = 71.6

IC50 measured on Cn1ccc(Cn2cc(-c3ccc(Cl)c(C(F)(F)F)c3)cn2)n1 [Example 30] = 3.47

IC50 measured on Cc1[nH]ncc1Cn1cc(-c2ccc(Cl)c(OC(F)F)c2)cn1 [Example 16] = 64.7

IC50 measured on Fc1ccc(-c2cnn(Cc3cc[nH]n3)c2)cc1C(F)F [Example 35] = 22.6

IC50 measured on Clc1ccc(-c2cnn(Cc3cn4ccccc4n3)c2)cc1 [Example 102] = 10.2

IC50 measured on Cc1cc(Cn2cc(-c3cccc(C(F)(F)F)c3)cn2)n(C)n1 [Example 48] = 37.4

IC50 measured on CCc1c[nH]nc1Cn1cc(-c2ccc(F)c(OC(F)F)c2)cn1 [Example 91, Succinate] = 48.9

IC50 measured on Cn1nccc1-n1cc(-c2ccc(F)c(Cl)c2)cn1 [Example 101] = 118

IC50 measured on Cc1cc(-c2cnn(Cc3ccn(C)n3)c2)ccc1F [Example 55, Succinate] = 21.1

IC50 measured on Clc1ccc(-c2cnn(Cc3cc[nH]n3)c2)cc1 [Example 77] = 16.9

IC50 measured on Cc1n[nH]c(C)c1CCn1cc(-c2ccc(F)c(C(F)F)c2)cn1 [Example 36] = 29.6

IC50 measured on Cc1cc(Cn2cc(-c3ccc(F)c(C(F)F)c3)cn2)[nH]n1 [Example 39] = 90.2

IC50 measured on Cc1cc(Cn2cc(-c3ccc(F)c(C(F)F)c3)cn2)n(C)n1 [Example 32] = 38.6

IC50 measured on Fc1ccc(-c2cnn(CCc3cn[nH]c3)c2)cc1C(F)F [Example 37] = 38.1

IC50 measured on FC(F)Oc1cc(-c2cnn(Cc3ccn(C4CCCC4)n3)c2)ccc1Cl [Example 12] = 8.06

IC50 measured on Cn1ccc(Cn2cc(-c3ccc(F)c(Cl)c3)cn2)n1 [Example 61, Succinate] = 24.7

IC50 measured on Cn1nccc1Cn1cc(-c2ccc(Cl)c(OC(F)F)c2)cn1 [Example 5] = 64.3

* * *

- experimental.target: hERG receptor (Homo sapiens (Human))
- experimental.protocol: HERGBD: inhibition of specific [3H]-Dofetilide binding to the hERG receptor
Please go through the items and note down their pIC50.
Friendly reminder that pIC50 comes from taking -log10 of the concentration in mol/L.

Field pIC50 (system: hERG receptor (Homo sapiens (Human))) for entry Cn1ccc(Cn2cc(-c3ccc(Cl)cc3)cn2)n1 [Example 75] = 3.88

Field pIC50 (system: hERG receptor (Homo sapiens (Human))) for entry CCc1cc(Cn2cc(-c3ccc(F)c(C(F)F)c3)cn2)n[nH]1 [Example 40] = 4.63

Field pIC50 (system: hERG receptor (Homo sapiens (Human))) for entry Cc1cc(Cn2cc(-c3ccc(Cl)c(Cl)c3)cn2)n(C)n1 [Example 64] = 4.84

Field pIC50 (system: hERG receptor (Homo sapiens (Human))) for entry Cn1nccc1Cn1cc(-c2ccc(Cl)cc2)cn1 [Example 76] = 3.92

* * *

- experimental.target: rat NR1/NR2B receptor (Rattus norvegicus (Rat), UniProt P35439+Q00960)
- experimental.protocol: NR2B binding assay: inhibition of specific [3H]-Ifenprodil binding to the rat NR1/NR2B receptor
- conditions.used: [3H]-Ifenprodil binding, rat brain membranes
- Procedure: Biological Assays Inhibition of Specific Binding to the Rat NR1/NR2B Receptor Male Wistar rats (180 to 200 g) were killed by suffocation in a CO2 chamber for two minutes. Whole brains without cerebellum were removed and dissected on ice, placed into closed vials and stored at −70° C. Membrane fractions were prepared and tested using standard techniques. […] The optimal amount of membrane preparation in the assay was determined and optimized for each membrane preparation separately before the test. […]
Counter-ions that a name gives are not always drawn.
experimental.readout: IC50 (nM)
The reply should be a number in nM, with the unit left off.

IC50 measured on Cn1ccc(Cn2cc(-c3cccc(Br)c3)cn2)n1 [Example 82, Succinate] = 2620

IC50 measured on Cc1cc(Cn2cc(-c3ccc(Cl)c(Cl)c3)cn2)n(C)n1 = 1100

IC50 measured on Cc1cc(-c2cnn(Cc3ccn(C)n3)c2)ccc1F [Example 55, Succinate] = 871

IC50 measured on Cn1nccc1-n1cc(-c2ccc(F)c(Cl)c2)cn1 = 5600

IC50 measured on FC(F)Oc1cccc(-c2cnn(Cc3cc[nH]n3)c2)c1 [Example 94, Maleate] = 279

IC50 measured on Cc1cc(-c2cnn(Cc3ccn(C)n3)c2)ccc1Cl [Example 58, Succinate] = 668

IC50 measured on CCn1ccc(Cn2cc(-c3ccc(Cl)c(OC(F)F)c3)cn2)n1 = 281

IC50 measured on FC(F)Oc1cc(-c2cnn(Cc3cn[nH]c3)c2)ccc1Cl = 8.23

IC50 measured on CCc1c[nH]nc1Cn1cc(-c2ccc(F)c(C(F)F)c2)cn1 = 71.2
